# target_under_test: Toll-like receptor 7 (Homo sapiens, UniProt Q9NYK1)
# Sequence (Q9NYK1 whole entry): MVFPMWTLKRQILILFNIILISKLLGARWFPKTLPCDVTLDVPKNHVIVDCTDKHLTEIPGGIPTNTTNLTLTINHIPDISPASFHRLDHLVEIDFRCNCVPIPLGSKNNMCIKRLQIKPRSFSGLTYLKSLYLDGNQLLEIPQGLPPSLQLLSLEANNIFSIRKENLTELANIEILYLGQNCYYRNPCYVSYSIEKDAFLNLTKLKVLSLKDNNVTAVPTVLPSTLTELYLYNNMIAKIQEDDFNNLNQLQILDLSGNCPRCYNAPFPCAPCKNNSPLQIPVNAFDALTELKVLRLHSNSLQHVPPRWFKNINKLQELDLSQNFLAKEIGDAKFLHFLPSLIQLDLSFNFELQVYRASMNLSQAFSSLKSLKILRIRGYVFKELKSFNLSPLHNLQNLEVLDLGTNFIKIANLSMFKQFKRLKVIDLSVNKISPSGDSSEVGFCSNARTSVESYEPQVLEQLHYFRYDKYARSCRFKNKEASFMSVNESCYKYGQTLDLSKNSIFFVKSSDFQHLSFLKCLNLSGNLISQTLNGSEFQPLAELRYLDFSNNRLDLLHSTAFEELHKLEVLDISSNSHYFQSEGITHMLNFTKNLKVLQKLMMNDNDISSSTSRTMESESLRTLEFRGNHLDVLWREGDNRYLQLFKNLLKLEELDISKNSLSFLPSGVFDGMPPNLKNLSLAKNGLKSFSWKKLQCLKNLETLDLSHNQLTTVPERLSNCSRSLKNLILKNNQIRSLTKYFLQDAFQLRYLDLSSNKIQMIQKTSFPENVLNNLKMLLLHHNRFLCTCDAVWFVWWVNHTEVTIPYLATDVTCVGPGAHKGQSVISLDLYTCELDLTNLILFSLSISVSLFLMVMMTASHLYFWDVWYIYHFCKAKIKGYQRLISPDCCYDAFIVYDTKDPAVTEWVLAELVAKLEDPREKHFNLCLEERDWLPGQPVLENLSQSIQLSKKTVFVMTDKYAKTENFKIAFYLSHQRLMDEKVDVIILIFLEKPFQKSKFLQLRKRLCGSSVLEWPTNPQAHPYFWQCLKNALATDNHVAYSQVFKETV
# assay: Agonist activity at TLR7 (unknown origin)
attribute_measured: EC50 (nM)
Respond with the bare value in nM.

Prompt: Give the measured EC50 of `CC(C)Cn1cnc2c(N)nc3ccccc3c21` .
Response: 202
